- targetOfAssay: mouse TMEM16A mutant Y514A (Mus musculus, UniProt Q8BHY3, Y514A)
- Construct: expressed in transfected cells; host or cells: HEK293T
- Sequence (Q8BHY3 whole entry Y514A): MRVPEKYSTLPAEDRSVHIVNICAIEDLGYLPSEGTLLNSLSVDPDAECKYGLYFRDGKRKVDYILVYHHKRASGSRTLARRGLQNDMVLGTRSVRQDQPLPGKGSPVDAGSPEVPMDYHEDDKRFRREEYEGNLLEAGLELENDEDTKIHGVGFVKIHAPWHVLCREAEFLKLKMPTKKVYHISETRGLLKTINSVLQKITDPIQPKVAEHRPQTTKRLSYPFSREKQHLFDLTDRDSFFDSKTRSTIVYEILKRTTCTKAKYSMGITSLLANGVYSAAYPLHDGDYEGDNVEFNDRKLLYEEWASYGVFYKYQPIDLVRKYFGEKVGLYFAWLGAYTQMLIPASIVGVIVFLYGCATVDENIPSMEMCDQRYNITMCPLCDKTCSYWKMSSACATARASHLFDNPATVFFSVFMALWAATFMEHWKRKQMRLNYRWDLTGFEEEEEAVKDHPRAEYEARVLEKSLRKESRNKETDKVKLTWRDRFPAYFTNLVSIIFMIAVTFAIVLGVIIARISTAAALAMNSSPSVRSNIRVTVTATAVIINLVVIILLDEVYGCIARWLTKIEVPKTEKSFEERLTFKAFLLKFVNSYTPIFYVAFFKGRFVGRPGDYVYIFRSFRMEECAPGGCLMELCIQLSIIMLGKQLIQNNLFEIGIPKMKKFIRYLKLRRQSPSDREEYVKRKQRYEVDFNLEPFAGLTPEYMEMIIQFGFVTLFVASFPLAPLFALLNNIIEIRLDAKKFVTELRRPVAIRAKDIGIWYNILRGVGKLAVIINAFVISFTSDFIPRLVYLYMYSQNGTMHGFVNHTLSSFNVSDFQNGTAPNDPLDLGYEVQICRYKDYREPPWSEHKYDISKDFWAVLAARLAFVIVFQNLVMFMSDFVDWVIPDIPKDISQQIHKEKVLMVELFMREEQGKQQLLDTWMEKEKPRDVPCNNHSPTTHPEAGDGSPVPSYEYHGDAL
- measurementProtocol: Inside-out patch recording of 1PBC block, mutant Y514A
- Assay type: cell-based
- runConditions: -80 mV; 2 µM Ca2+
metric: IC50 (µM)
One number for each entry, in µM.

Query: Return reported IC50; argument: "N#Cc1c(C(F)(F)F)cc(O)n2c1nc1ccccc12"
Reply: 47.4

---

- targetOfAssay: mouse TMEM16A mutant I512A (Mus musculus, UniProt Q8BHY3, I512A)
- Construct: expressed in transfected cells; host or cells: HEK293T
- Sequence (Q8BHY3 whole entry I512A): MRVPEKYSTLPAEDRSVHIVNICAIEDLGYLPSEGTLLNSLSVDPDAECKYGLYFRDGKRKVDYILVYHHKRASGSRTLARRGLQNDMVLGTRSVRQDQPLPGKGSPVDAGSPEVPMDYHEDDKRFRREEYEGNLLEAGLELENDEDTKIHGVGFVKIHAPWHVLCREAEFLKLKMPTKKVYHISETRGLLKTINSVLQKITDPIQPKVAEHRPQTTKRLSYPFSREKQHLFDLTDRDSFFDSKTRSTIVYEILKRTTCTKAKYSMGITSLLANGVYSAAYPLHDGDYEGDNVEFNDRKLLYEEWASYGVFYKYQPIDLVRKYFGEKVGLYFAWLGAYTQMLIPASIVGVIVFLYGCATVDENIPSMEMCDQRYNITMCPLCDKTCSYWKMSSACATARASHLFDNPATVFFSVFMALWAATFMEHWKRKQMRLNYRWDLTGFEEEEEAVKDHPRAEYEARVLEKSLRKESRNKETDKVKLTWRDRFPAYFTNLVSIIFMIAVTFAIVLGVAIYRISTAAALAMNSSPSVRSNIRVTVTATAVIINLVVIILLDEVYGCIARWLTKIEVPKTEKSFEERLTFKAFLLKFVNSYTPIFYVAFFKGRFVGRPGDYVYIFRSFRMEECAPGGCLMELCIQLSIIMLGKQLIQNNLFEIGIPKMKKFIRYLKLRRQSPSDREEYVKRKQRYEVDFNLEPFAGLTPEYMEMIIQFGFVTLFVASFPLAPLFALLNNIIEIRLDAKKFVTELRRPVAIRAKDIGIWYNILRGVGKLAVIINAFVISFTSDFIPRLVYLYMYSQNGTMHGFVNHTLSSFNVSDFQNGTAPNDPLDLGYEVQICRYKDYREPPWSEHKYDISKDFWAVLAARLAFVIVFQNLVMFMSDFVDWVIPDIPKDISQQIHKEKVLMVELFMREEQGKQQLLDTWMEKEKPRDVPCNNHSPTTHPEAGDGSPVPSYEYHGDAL
- measurementProtocol: Inside-out patch recording of 1PBC block, mutant I512A
- Format: cell-based
- runConditions: I512A; V 140 mV
metric: IC50 (µM)
Numbers only, in µM.

Query: Requested read-out IC50, target or system mouse TMEM16A mutant I512A (Mus musculus, UniProt Q8BHY3, I512A), entry "N#Cc1c(C(F)(F)F)cc(O)n2c1nc1ccccc12"
Reply: 16.6

---

- targetOfAssay: mouse TMEM16A mutant T518A (Mus musculus, UniProt Q8BHY3, T518A)
- Construct: expressed in transfected cells; host or cells: HEK293T
- Sequence (Q8BHY3 whole entry T518A): as the sequence (Q8BHY3 whole entry Y514A) above, with A514Y, T518A counted along it
- measurementProtocol: Inside-out patch recording of 1PBC block, mutant T518A
- Assay type: cell-based
- runConditions: T518A; V -120 mV
metric: pIC50
Answers are plain numbers, as −log10 of the molar value.

Query: Param item = "N#Cc1c(C(F)(F)F)cc(O)n2c1nc1ccccc12" ; retrieve measured pIC50.
Reply: 4.67

---

- targetOfAssay: mouse TMEM16A mutant Y598A (Mus musculus, UniProt Q8BHY3, Y598A)
- Construct: expressed in transfected cells; host or cells: HEK293T
- Sequence (Q8BHY3 whole entry Y598A): as the sequence (Q8BHY3 whole entry Y514A) above, with A514Y, Y598A counted along it
- measurementProtocol: Inside-out patch recording of 1PBC block, mutant Y598A
- Format: cell-based
- runConditions: Y598A; V 120 mV
metric: pIC50
Numbers only, as −log10 of the molar value.

Query: What does the data say about its pIC50? Entry: "N#Cc1c(C(F)(F)F)cc(O)n2c1nc1ccccc12"
Reply: 5.50
